The measured values listed here are drawn from PubChem BioAssay (Tox21).

biological target: Estrogen receptor (Homo sapiens) (UniProt P03372); assay: qHTS assay to identify small molecule antagonists of the estrogen receptor alpha (ER-alpha) signaling pathway (AID 743069); settings: HEK293 ER-alpha-UAS-bla, beta-lactamase ratio, antagonist mode; series mostly up to 69.4 µM
Sequence (P03372 whole entry, looked up): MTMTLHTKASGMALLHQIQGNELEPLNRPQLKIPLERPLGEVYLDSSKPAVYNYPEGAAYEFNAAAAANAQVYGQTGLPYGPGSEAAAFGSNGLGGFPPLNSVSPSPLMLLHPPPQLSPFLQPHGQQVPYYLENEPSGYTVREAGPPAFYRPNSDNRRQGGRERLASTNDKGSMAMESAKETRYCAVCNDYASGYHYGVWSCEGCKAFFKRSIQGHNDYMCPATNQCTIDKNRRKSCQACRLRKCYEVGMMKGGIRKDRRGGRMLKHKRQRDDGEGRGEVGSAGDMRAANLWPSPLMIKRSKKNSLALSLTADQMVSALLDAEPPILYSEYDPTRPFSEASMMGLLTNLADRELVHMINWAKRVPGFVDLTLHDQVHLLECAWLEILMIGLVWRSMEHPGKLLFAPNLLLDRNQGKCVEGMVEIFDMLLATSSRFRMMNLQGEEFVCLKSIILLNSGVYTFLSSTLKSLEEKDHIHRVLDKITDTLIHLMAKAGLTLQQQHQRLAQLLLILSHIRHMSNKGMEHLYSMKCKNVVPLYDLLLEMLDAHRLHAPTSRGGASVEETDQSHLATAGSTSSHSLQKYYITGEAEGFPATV
Active and inactive are the calls of the source. Calls come from the whole dose curve; as a rule, active = well fitted curve in the direction sought with a large enough effect in the signal ratio in the repeat runs (not every such curve was filed as active); inconclusive = weak or mixed curves, or effect the other way; inactive = no such curve, though single readings can be large or run the other way; the % refers to the signal ratio.
Reply using exactly one outcome from active, inactive

Query block: Can you look up the reported call for NNC(N)=O for me?
Result block: inactive

Query block: Then Cc1cccc2sc3nncn3c12 ?
Result block: inactive

Query block: Then N=C(N)[Se] ?
Result block: inactive

Query block: Then CC(C)[N+](C)(CCC(C(N)=O)(c1ccccc1)c1ccccc1)C(C)C ?
Result block: inactive

Query block: Then N[C@@H](Cc1ccc(Oc2cc(I)c(O)c(I)c2)c(I)c1)C(=O)O ?
Result block: inactive

Query block: Then Clc1nc(Cl)nc(Nc2ccccc2Cl)n1 ?
Result block: inactive

Query block: Then C=CCCC#N ?
Result block: inactive

Query block: Then CCN[C@@H](C)Cc1ccccc1 ?
Result block: inactive

Query block: Then C[C@H]1CCCC(=O)CCC/C=C/c2cc(O)cc(O)c2C(=O)O1 ?
Result block: active

Query block: Then CNC(=O)Oc1ccccc1C(C)C ?
Result block: inactive

----------
molecular target: Nuclear receptor subfamily 1 group I member 2 (Homo sapiens); experiment: Human pregnane X receptor (PXR) small molecule agonists, qHTS assay (AID 1346982); conditions: PXR-Luc HepG2, CYP3A4 luciferase reporter, 24 h; series mostly up to 92.4 µM; note: nearly all actives have a fitted effect of over 35% in size
Results filed as inconclusive are left out. Calls of active or inactive are those of the source. The call rests on the fitted dose curve; in most records, active means well fitted activation curve with a large enough effect in the repeat runs; inconclusive means weak or mixed curves; inactive means no such curve, though single readings can be large or run the other way.
Reply using exactly one outcome from true (active), false (inactive)

Query block: Can you look up the reported call for CCNc1nc(Cl)nc(NC(C)(C)C)n1 for me?
Result block: true

Query block: Then O=C(Cl)C(Cl)Cl ?
Result block: false

Query block: Then [P]#[In] ?
Result block: false

Query block: Then NCC1(CC(=O)O)CCCCC1 ?
Result block: false

Query block: Then C(COCC1CO1)OCC1CO1 (stereo not drawn) ?
Result block: true

Query block: Then C=CC(=O)OCCN(C)C ?
Result block: false

Query block: Then CCOC(=O)C(Cl)Cc1cc(-n2nc(C)n(C(F)F)c2=O)c(F)cc1Cl (stereo not drawn) ?
Result block: false

Query block: Then CCOC(=O)N(C)N=O ?
Result block: false

Query block: Then CCCC(C)(COC(N)=O)COC(N)=O ?
Result block: true

Query block: Then C[N+]1(C)CCCCC1 ?
Result block: false

Query block: Then CON(C)C(=O)Nc1ccc(Br)c(Cl)c1 ?
Result block: true

Query block: Then O=C1C2CC=CCC2C(=O)N1SC(Cl)(Cl)Cl (stereo not drawn) ?
Result block: false

Query block: Then CCN[C@H](C)Cc1cccc(C(F)(F)F)c1 ?
Result block: false

----------
target: Cytochrome P450 2C9 (Homo sapiens) (UniProt P11712); assay: Cytochrome P450 Family 2 Subfamily C Member 9 (CYP2C9) small molecule antagonists: luciferase reporter qHTS assay (AID 1671198); settings: P450-Glo CYP2C9 enzyme assay, luciferin luminescence; series mostly up to 115 µM; note: nearly all actives have a fitted effect of over 50% in size
Sequence (P11712 whole entry, looked up): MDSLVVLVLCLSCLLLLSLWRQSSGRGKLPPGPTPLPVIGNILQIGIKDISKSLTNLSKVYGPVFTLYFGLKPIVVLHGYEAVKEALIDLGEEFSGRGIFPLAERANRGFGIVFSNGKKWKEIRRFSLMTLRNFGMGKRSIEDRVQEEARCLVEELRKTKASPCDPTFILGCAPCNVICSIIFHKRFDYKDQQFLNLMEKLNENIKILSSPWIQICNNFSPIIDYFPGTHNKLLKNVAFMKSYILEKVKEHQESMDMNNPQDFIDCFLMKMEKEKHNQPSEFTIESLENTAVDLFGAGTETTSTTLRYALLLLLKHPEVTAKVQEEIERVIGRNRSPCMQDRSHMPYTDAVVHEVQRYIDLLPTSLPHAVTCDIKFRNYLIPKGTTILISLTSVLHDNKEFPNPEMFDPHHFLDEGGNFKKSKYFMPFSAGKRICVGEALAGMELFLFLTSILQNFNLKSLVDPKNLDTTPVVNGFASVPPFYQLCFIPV
Inconclusive results are not listed. Active and inactive are the calls of the source. Calls follow the shape of the dose curve; as a rule, active = well fitted inhibition curve with a large enough effect in the repeat runs; inconclusive = weak or mixed curves; inactive = no such curve, though single readings can be large or run the other way.
Reply using exactly one outcome from active, inactive

Query block: Can you look up the reported call for CC1NCCOC1c1ccccc1 (centres undefined) for me?
Result block: inactive

Query block: Then CN(CCO)CCO ?
Result block: inactive

Query block: Then CCN(CC)C1CCCCC1 ?
Result block: inactive

Query block: Then CC(C)(C)C(=O)C(Cl)Cl ?
Result block: inactive

Query block: Then C=CC=O ?
Result block: inactive

Query block: Then CCCOC(=O)c1cncn1C(C)c1ccccc1 (centres undefined) ?
Result block: active

Query block: Then CC(C)(C)c1cc(O)ccc1O ?
Result block: active

Query block: Then Cc1ccc2cc(C)ccc2c1 ?
Result block: inactive

Query block: Then Cc1cc(OC(=O)N(C)C)nn1C(=O)N(C)C ?
Result block: inactive

Query block: Then CN(C)C(=O)Oc1cc(OC(=O)N(C)C)cc(C(O)CNC(C)(C)C)c1 (centres undefined) ?
Result block: inactive

Query block: Then CCOC(=O)NC(C)(C)Cc1ccc(Cl)cc1 ?
Result block: active

Query block: Then COC[C@@H](NC(C)=O)C(=O)NCc1ccccc1 ?
Result block: inactive

Query block: Then O=C(O)C(Br)(Br)Br ?
Result block: inactive

Query block: Then CCCC[N+](=O)[O-] ?
Result block: inactive

Query block: Then CC(C)NCC(O)c1ccc([N+](=O)[O-])cc1 (centres undefined) ?
Result block: inactive

Query block: Then ClCC1CO1 (centres undefined) ?
Result block: inactive

Query block: Then CC(=O)CN(CC(C)=O)N=O ?
Result block: inactive

Query block: Then [O-][Br+2]([O-])O ?
Result block: inactive

Query block: Then CC#Cc1cc(C)nc(Nc2ccccc2)n1 ?
Result block: active

----------
target: Estrogen receptor beta (Homo sapiens) (UniProt Q92731); test: qHTS assay to identify small molecule agonists of the estrogen receptor beta (ER-beta) signaling pathway (AID 1259377); details: ER-beta-UAS-bla HEK293T, beta-lactamase FRET ratio, 16 h; series mostly up to 92.4 µM
Sequence (Q92731 whole entry, looked up): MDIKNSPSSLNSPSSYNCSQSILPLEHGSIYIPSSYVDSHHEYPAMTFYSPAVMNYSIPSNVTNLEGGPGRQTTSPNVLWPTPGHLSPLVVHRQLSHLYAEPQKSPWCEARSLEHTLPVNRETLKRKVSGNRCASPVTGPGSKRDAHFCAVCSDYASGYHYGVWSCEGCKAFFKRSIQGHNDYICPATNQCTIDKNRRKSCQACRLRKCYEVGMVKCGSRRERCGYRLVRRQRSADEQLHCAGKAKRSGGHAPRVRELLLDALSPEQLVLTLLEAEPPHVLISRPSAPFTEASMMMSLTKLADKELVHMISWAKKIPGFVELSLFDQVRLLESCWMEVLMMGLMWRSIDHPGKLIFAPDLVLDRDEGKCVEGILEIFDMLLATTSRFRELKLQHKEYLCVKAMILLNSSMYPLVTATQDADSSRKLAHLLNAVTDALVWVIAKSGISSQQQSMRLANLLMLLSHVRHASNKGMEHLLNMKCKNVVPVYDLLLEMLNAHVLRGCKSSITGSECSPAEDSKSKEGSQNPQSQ
Inconclusive results are not listed. Calls of active or inactive are those of the source. Calls come from the whole dose curve; as a rule, active = well fitted activation curve with a large enough effect in the signal ratio in the repeat runs (not every such curve was filed as active); inconclusive = weak or mixed curves, or effect the other way; inactive = flat fitted curve, though single readings scatter; the % refers to the signal ratio.
metric.name: outcome

CN(C)CCc1c[nH]c2cccc(OP(=O)(O)O)c12 ... inactive
COc1ccc(C=O)cc1O ... inactive
CC(C)[N+](C)(CCC(C(N)=O)(c1ccccc1)c1ccccc1)C(C)C ... inactive
O=C1CC(=O)NC(=O)N1 ... inactive
C=CCCC#N ... inactive
O=C(Cl)/C=C/C(=O)Cl ... inactive
ClC(Cl)(Cl)Cl ... inactive
CCC1(c2ccccc2)CCC(=O)NC1=O (stereo unspecified) ... inactive
N#CN ... inactive
CC(O)CCl (stereo unspecified) ... inactive

Query block: Return outcome measured with Estrogen receptor beta (Homo sapiens) (UniProt Q92731) given this compound: CCN(CCO)CCn1c(Cc2ccccc2)nc2c1c(=O)n(C)c(=O)n2C
Result block: inactive

----------
molecular target: Cytochrome P450 3A4 (Homo sapiens) (UniProt P08684); experiment: Cytochrome P450 Family 3 Subfamily A Member 4 (CYP3A4) small molecule antagonists: luciferase reporter qHTS assay (AID 1671201); settings: P450-Glo CYP3A4 enzyme, luciferin luminescence, 1 h; series mostly up to 115 µM; note: nearly all actives have a fitted effect of over 50% in size
Sequence (P08684 whole entry, looked up): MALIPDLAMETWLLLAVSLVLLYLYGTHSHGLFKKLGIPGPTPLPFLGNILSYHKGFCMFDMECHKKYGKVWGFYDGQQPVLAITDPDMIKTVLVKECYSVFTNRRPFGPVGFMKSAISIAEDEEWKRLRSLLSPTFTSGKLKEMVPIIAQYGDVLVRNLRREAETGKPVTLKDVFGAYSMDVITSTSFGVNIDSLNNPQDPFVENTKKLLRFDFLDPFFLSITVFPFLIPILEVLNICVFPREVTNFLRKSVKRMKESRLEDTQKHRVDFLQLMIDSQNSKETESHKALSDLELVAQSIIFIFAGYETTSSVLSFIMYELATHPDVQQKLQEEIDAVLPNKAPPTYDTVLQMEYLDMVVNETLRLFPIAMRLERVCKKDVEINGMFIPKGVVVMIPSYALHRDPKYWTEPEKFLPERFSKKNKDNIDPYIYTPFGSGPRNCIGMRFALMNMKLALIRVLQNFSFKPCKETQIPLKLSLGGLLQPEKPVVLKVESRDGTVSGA
Inconclusive results are not listed. Activity calls are given as the source filed them. Calls follow the shape of the dose curve; as a rule, active = well fitted inhibition curve with a large enough effect in the repeat runs; inconclusive = weak or mixed curves; inactive = no such curve, though single readings can be large or run the other way.
Reply using exactly one outcome from true = active, false = inactive

Query block: Can you look up the reported call for CCCN1CCC[C@@H]2Cc3[nH]ncc3C[C@H]21 for me?
Result block: false

Query block: Then CC(C)(N)Cc1ccccc1Cl ?
Result block: false

Query block: Then CCOC(=O)C(Cl)Cc1cc(-n2nc(C)n(C(F)F)c2=O)c(F)cc1Cl (configuration not stated) ?
Result block: true

Query block: Then CCCC[N+](=O)[O-] ?
Result block: false

Query block: Then [O-][Br+2]([O-])O ?
Result block: false

Query block: Then CCCCOC(C)=O ?
Result block: false

Query block: Then Cc1ccc2cc(C)ccc2c1 ?
Result block: false

----------
biological target: Nuclear receptor subfamily 1 group I member 2 (Homo sapiens) (UniProt O75469); experiment: CYP3A4 induction through human pregnane X receptor (PXR) by small molecules, qHTS assay (AID 1346984); settings: DPX-2 HepG2 PXR, CYP3A4-luciferin luminescence, 24 h; series mostly up to 46.1 µM; note: nearly all actives have a fitted effect of over 40% in size
Sequence (O75469 whole entry, looked up): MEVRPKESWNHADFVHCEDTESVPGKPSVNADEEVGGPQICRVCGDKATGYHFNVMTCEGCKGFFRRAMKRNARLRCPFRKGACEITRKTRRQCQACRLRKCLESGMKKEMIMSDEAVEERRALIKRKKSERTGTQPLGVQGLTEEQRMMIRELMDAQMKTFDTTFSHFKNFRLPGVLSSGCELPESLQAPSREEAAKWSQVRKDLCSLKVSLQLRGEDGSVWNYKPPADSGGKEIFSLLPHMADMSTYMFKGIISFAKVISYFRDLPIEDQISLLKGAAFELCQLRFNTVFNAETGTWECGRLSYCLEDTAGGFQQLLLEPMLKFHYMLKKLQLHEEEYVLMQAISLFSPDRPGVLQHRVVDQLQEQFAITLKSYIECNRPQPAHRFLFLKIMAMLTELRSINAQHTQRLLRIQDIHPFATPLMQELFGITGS
Inconclusive results are not listed. Calls of active or inactive are those of the source. Calls come from the whole dose curve; as a rule, active = well fitted activation curve with a large enough effect in the repeat runs; inconclusive = weak or mixed curves; inactive = no such curve, though single readings can be large or run the other way.
Reply using exactly one outcome from active, inactive

Query block: Can you look up the reported call for CC(=O)OCC1=C(C(=O)O)N2C(=O)[C@@H](N)[C@H]2SC1 for me?
Result block: inactive

Query block: Then CCC1(c2ccccc2)CCC(=O)NC1=O (centres undefined) ?
Result block: inactive

Query block: Then Cc1ccc(Cl)c(O)c1 ?
Result block: inactive

Query block: Then N[C@@H](Cc1ccc(Oc2cc(I)c(O)c(I)c2)c(I)c1)C(=O)O ?
Result block: active

Query block: Then CC(C)(N)Cc1ccc(Cl)cc1 ?
Result block: inactive

Query block: Then O=C1C2CC=CCC2C(=O)N1SC(Cl)(Cl)Cl (centres undefined) ?
Result block: inactive

Query block: Then CCCC(C)(COC(N)=O)COC(N)=O ?
Result block: inactive

Query block: Then CC1=C2[C@H]3OC(=O)[C@@H](C)[C@@H]3CC[C@@]2(C)C=CC1=O ?
Result block: active

Query block: Then CCC(C(N)=O)N1CCCC1=O (centres undefined) ?
Result block: inactive

----------
target: Nuclear receptor subfamily 1 group I member 3 (Homo sapiens) (UniProt Q14994); assay: qHTS assay to identify small molecule antagonists of the constitutive androstane receptor (CAR) signaling pathway (AID 1224838); details: HepG2-CYP2B6-hCAR luciferase, CITCO-stimulated, 24 h; series mostly up to 92.4 µM;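 note: HepG2 cells stably expressing hCAR with CYP2B6 luciferase reporter stimulated by CITCO; nearly all actives have a fitted effect of over 40% in size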
Sequence (Q14994 whole entry, looked up): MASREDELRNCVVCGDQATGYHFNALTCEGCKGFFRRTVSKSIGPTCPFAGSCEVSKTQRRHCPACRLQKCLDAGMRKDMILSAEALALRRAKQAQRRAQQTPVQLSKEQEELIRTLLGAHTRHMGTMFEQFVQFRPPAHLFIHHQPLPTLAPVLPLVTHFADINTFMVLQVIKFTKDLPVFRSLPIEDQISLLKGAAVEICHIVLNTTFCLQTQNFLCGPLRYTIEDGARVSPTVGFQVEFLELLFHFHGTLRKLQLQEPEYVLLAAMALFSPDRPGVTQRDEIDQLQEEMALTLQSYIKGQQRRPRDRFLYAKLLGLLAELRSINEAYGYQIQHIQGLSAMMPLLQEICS
Records with an inconclusive call do not appear. Calls of active or inactive are those of the source. Calls come from the whole dose curve; as a rule, active = well fitted inhibition curve with a large enough effect in the repeat runs; inconclusive = weak or mixed curves, or effect the other way; inactive = no such curve, though single readings can be large or run the other way.
Reply using exactly one outcome from active, inactive

Query block: Can you look up the reported call for OP(O)c1ccccc1 for me?
Result block: inactive

Query block: Then COC(=O)c1ccc(CBr)cc1 ?
Result block: inactive

Query block: Then C[C@H]1CCCC(=O)CCC/C=C/c2cc(O)cc(O)c2C(=O)O1 ?
Result block: active
